Listed binders paired with reported Fld improvement
# target or test system: T1, Human IL-13 (human, UniProt P35225 35-146)
# T1 construct: also called human interleukin 13 (Peprotech); the antigen
# T1 sequence (P35225 35-146 limits assumed): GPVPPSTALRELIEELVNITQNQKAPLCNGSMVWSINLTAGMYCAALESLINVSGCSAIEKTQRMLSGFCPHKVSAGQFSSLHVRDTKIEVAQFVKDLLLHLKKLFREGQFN
# assay notes: IC50 of the parent scFv divided by IC50 of the clone, biochemical receptor-ligand inhibition assay, purified scFv (second panel)
Reply numerically in fold, unit not repeated.

Some solved cases for reference:
| binder | Fld improvement [fold] |
| --- | --- |
| 13NG0088 (scFv, V domains shown, purified scFv from the mini-recombination library; member of group m20; also called ZZ0SEC-C01; copies: 1 + 1) VH: QVQLVQSGAEVKKPGASVKVSCKASGYTFTNYGLSWVRQAPGQGLEWMGWINYDGGNTQYGQEFQGRVTMTTDTSTSTAYMELRSLRSDDTAVYYCARDSSSSWARWFFDLWGRGTLVTVSS VL: SYVLTQPPSVSVAPGKTARIPCGGNLIGARLVHWYQQKPGQAPVLVIMDDIDRPSGIPERFSGSNSGNTATLTISRVEAGDEADYYCQVWDTGSRPVVFGGGTKLTVL | 7 |
| 13NG0080 (scFv, V domains shown, purified scFv from the mini-recombination library; member of group m20; also called ZZ0SEA-D07; copies: 1 + 1) VH: QAQLVQSGAEVKKPGASVKVSCKASGYTFTNYGLSWVRQAPGQGLEWMGWINYDGGNTQYGQEFQGRVTMTTDTSTSTAYMELRSLRSDDTAVYYCARDSSSSWARWFFDLWGRGTLVTVSS VL: SYVLTQPPSVSVAPGKTARIPCGGNLIAARLVHWYQQKPGQAPVLIVFDDEDRPSGIPERFSGSNSGNTATLTISRVETGDEADYYCQVWDTGSSPVVFGGGTKLTVL | 4.1 |
| 13NG0083 (antibody, V domains shown, also called unmodified 13NG0083; WT) VH: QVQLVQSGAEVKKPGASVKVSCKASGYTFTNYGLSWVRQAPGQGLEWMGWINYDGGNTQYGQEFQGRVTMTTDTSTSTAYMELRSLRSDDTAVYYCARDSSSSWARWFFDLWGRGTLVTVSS VL: SYVLTQPPSVSVAPGKTARIPCGGNMVGARLVHWYQQKPGQAPVLIVFDDEDRPSGIPERFSGSNSGNTATLTISRVEAGDEADYYCQVWDTGSSPVVFGGGTKLTVL | 5.2 |

Exercise: Tell me the measured Fld improvement of 13NG0079 (scFv, V domains shown, purified scFv from the mini-recombination library; member of group m20; also called ZZ0SEA-B02; copies: 1 + 1) VH: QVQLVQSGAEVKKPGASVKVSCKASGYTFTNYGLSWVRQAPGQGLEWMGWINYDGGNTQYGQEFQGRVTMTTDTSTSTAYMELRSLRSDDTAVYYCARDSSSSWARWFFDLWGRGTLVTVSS VL: SYVLTQPPSVSVAPGKTARIPCGGNLIGARLVHWYQQKPGQAPVLIVYDDMDRPSGIPERFSGSNSGNTATLTISRVEAGDEADYYCQVWDTGSLPVVFGGGTKLTVL , please.
Solution: 5.8

Exercise: Okay, and 13NG0086 (scFv, V domains shown, purified scFv from the mini-recombination library; member of group m20; also called ZZ0SEB-F04; copies: 1 + 1) VH: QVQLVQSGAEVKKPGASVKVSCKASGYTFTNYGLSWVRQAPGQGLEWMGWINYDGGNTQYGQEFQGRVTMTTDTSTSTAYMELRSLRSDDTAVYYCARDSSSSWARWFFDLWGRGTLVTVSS VL: SYVLTQPPSVSVAPGKTARIPCGGNMVGARLVHWYQQKPGQAPVLIVYDDMDRPSGIPERFSGSNSGNTATLTISRVEAGDEADYYCQVWDTGSRPVVFGGGTKLTVL ?
Solution: 3.2
